These data points were gathered from PubChem BioAssay AID2060621.

Answer each item with its documented viability, T/C.
Test system: 324938-238-R-J1-PDC complex spheroids viability;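 note: viability read after seven days of drug exposure; 100% = DMSO vehicle control wells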
Experiment: Anticancer human tumor 324938-238-R-J1-PDC patient-derived bladder carcinoma cell line growth inhibition [CLK]
Conditions: second compound 0.316 µM; first compound 0.0949 µM; stronger effect = lower value
Provide the reading as a plain figure in %.

Hello, I am looking for reported viability, T/C with 324938-238-R-J1-PDC complex spheroids viability for C=CC(=O)Nc1cc(Nc2nccc(-c3cn(C)c4ccccc34)n2)c(OC)cc1N(C)CCN(C)C + CN1CCN(c2cc(C(=O)Nc3cc4cc(-c5cnn(C)c5)ccc4cn3)ccn2)CC1 . Could you help?
17.1

Checklist item: viability, T/C tested on 324938-238-R-J1-PDC complex spheroids viability, entry CC(C)CC(NC(=O)C(Cc1ccccc1)NC(=O)c1cnccn1)B(O)O (stereo not drawn) + CNC(=O)c1ccc(Nc2nc(OC3CCCC3)c3c(-c4ccc5nc(C)oc5c4)c[nH]c3n2)c(OC)c1 , value?;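 note: viability read after seven days of drug exposure; 100% = DMSO vehicle control wells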
0.1

Please provide the recorded viability, T/C for NC(=O)C(=Cn1cnc(-c2cc(C(F)(F)F)cc(C(F)(F)F)c2)n1)c1cncnc1 + CNC(=O)c1ccc(Nc2nc(OC3CCCC3)c3c(-c4ccc5nc(C)oc5c4)c[nH]c3n2)c(OC)c1 , tested on 324938-238-R-J1-PDC complex spheroids viability.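 Note: viability read after seven days of drug exposure; 100% = DMSO vehicle control wells.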
13.7
